EC50 listing for selected binders.
Molecular target: T1, cyno TfR ECD (cynomolgus)
T1 chain: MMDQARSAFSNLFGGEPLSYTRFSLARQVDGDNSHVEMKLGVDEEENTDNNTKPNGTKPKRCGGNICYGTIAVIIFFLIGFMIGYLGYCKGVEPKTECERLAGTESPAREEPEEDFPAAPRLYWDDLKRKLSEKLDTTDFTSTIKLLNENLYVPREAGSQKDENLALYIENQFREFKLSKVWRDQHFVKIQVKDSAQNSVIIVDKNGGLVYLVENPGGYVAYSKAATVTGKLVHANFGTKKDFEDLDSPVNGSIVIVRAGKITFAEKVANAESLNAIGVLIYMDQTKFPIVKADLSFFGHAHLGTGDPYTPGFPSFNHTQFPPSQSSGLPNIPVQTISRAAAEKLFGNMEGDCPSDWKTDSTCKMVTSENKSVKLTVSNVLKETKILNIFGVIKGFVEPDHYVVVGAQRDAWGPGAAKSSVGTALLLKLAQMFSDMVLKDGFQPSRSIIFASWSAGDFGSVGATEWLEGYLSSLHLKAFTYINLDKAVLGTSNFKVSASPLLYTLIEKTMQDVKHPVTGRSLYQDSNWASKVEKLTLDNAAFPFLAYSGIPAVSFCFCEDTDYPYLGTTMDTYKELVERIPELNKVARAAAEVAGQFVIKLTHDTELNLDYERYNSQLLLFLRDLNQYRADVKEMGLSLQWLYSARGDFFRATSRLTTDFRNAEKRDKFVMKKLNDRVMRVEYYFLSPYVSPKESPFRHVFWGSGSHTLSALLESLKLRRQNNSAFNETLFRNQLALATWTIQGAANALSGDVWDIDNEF
Assay: ELISA
# value in ng/mL; strip the unit string

>>> quantitative_readout("hu15G11.v5 LC T52A (antibody, V domains shown) VH: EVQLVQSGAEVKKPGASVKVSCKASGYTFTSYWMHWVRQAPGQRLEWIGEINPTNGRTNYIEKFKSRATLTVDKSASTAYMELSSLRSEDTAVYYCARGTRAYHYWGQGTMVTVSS VL: DIQMTQSPSSLSASVGDRVTITCRASDNLYSNLAWYQQKPGKSPKLLVYDAANLADGVPSRFSGSGSGTDYTLTISSLQPEDFATYYCQHFWGTPLTFGQGTKVEIK")
0.3
>>> quantitative_readout("hu15G11.v5 LC N28A (antibody, V domains shown) VH: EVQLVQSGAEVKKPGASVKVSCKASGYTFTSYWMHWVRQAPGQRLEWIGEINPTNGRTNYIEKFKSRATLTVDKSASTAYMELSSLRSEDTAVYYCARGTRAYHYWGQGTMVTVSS VL: DIQMTQSPSSLSASVGDRVTITCRASDALYSNLAWYQQKPGKSPKLLVYDATNLADGVPSRFSGSGSGTDYTLTISSLQPEDFATYYCQHFWGTPLTFGQGTKVEIK")
0.8
>>> quantitative_readout("hu15G11.v5 HC E50A (antibody, V domains shown) VH: EVQLVQSGAEVKKPGASVKVSCKASGYTFTSYWMHWVRQAPGQRLEWIGAINPTNGRTNYIEKFKSRATLTVDKSASTAYMELSSLRSEDTAVYYCARGTRAYHYWGQGTMVTVSS VL: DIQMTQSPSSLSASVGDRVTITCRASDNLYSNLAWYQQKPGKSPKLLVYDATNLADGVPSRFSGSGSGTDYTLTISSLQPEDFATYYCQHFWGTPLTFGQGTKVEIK")
410
>>> quantitative_readout("hu15G11.v5 LC N53A (antibody, V domains shown) VH: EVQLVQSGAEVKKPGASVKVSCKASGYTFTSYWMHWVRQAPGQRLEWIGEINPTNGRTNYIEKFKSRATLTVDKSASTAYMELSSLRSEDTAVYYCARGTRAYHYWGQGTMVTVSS VL: DIQMTQSPSSLSASVGDRVTITCRASDNLYSNLAWYQQKPGKSPKLLVYDATALADGVPSRFSGSGSGTDYTLTISSLQPEDFATYYCQHFWGTPLTFGQGTKVEIK")
0.6

For the binder hu15G11.v5 HC M34A (antibody, V domains shown) VH: EVQLVQSGAEVKKPGASVKVSCKASGYTFTSYWAHWVRQAPGQRLEWIGEINPTNGRTNYIEKFKSRATLTVDKSASTAYMELSSLRSEDTAVYYCARGTRAYHYWGQGTMVTVSS VL: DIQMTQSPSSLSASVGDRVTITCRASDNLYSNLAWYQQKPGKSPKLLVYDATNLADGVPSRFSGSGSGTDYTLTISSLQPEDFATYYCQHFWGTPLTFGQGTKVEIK , what EC50 is on record?
1.1

# get_value(readout='EC50', item= hu15G11.v5 HC T30A (antibody, V domains shown) VH: EVQLVQSGAEVKKPGASVKVSCKASGYTFASYWMHWVRQAPGQRLEWIGEINPTNGRTNYIEKFKSRATLTVDKSASTAYMELSSLRSEDTAVYYCARGTRAYHYWGQGTMVTVSS VL: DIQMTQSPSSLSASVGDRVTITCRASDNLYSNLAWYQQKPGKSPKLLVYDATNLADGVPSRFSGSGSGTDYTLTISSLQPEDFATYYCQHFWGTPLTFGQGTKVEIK )
0.9

Value lookup for EC50; key = hu15G11.v5 HC T28A (antibody, V domains shown) VH: EVQLVQSGAEVKKPGASVKVSCKASGYAFTSYWMHWVRQAPGQRLEWIGEINPTNGRTNYIEKFKSRATLTVDKSASTAYMELSSLRSEDTAVYYCARGTRAYHYWGQGTMVTVSS VL: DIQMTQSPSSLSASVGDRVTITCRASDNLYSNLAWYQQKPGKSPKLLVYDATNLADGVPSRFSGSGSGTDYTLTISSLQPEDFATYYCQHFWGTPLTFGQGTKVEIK
0.8

What EC50 value was documented for this binder, hu15G11.v5 IgG (antibody, V domains shown) VH: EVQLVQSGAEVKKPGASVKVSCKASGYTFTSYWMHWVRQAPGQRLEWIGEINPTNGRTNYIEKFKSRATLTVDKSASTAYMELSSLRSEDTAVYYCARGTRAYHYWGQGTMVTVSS VL: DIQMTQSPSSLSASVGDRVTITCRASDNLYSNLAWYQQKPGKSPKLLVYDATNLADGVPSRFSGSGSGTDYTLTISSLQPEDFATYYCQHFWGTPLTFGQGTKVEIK ?
1.8

Any idea what EC50 was measured for hu15G11.v5 HC G26A (antibody, V domains shown) VH: EVQLVQSGAEVKKPGASVKVSCKASAYTFTSYWMHWVRQAPGQRLEWIGEINPTNGRTNYIEKFKSRATLTVDKSASTAYMELSSLRSEDTAVYYCARGTRAYHYWGQGTMVTVSS VL: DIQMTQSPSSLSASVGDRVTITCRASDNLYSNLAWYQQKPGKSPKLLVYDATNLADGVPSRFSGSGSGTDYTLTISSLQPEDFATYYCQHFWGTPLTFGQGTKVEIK ?
6.1

# query: EC50 of entry hu15G11.v5 LC R24A (antibody, V domains shown) VH: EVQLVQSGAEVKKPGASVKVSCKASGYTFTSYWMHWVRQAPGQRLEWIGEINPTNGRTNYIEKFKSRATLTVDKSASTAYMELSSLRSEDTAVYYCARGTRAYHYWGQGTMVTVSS VL: DIQMTQSPSSLSASVGDRVTITCAASDNLYSNLAWYQQKPGKSPKLLVYDATNLADGVPSRFSGSGSGTDYTLTISSLQPEDFATYYCQHFWGTPLTFGQGTKVEIK
0.4

The values you see were collected from patent US11008403.
